assay: AUC in BALB/c mouse at 5 mg/kg, iv measured upto 24 hrs by LC-MS/MS analysis; assay type: ADME, organism-based; set-up: dose 5 mg/kg, time < 24 hr, route intravenous; conditions: in vivo
Please provide measured AUC at 24 h for the entries that follow.
# number only, unit µM·h dropped from output

Enquiry: Any idea what its AUC at 24 h is? The compound is COc1ccc(-c2cnn3c(N)c(-c4ccccc4)c(NC4CC(C)(C)N(C)C(C)(C)C4)nc23)cc1OC
Return: 3.2

Enquiry: Any idea what its AUC at 24 h is? The compound is CN1C(C)(C)CC(Nc2nc3c(-c4ccc(C(=O)N5C[C@@H]6C[C@H]5CO6)cc4)cnn3c(N)c2-c2ccccc2)CC1(C)C
Return: 2.6

====

system: LC-2-ad; assay: Cytotoxicity against human LC2/ad cells assessed as reduction in cell viability incubated for 6 days by CellTiter Glo assay; format: cell-based; conditions: 144 h
endpoint name: pIC50
Note: pIC50 values are expressed as the negative base-10 logarithm of concentration in M.

Enquiry: Any idea what its pIC50 is? The compound is CN1C(C)(C)CC(Nc2nc3c(-c4ccc(C(=O)N5CCN(S(C)(=O)=O)CC5)cc4)cnn3c(N)c2-c2ccccc2)CC1(C)C
Return: 5.55

Enquiry: Any idea what its pIC50 is? The compound is CN1C(C)(C)CC(Nc2nc3c(-c4ccc(C(=O)N5C[C@@H]6C[C@H]5CO6)cc4)cnn3c(N)c2-c2ccccc2)CC1(C)C
Return: 5.47

Enquiry: Any idea what its pIC50 is? The compound is COC(=O)N1CCN(C(=O)c2ccc(-c3cnn4c(N)c(-c5ccccc5)c(NC5CC(C)(C)N(C)C(C)(C)C5)nc34)cc2)CC1
Return: 5.89

Enquiry: Any idea what its pIC50 is? The compound is COc1ccc(-c2cnn3c(N)c(-c4ccccc4)c(OC4CCN(C)CC4)nc23)cc1OC
Return: 5.80

Enquiry: Any idea what its pIC50 is? The compound is COc1ccc(-c2cnn3c(N)c(-c4ccccc4)c(OC4CCNCC4)nc23)cc1OC
Return: 5.57

Enquiry: Any idea what its pIC50 is? The compound is COc1ccc(-c2cnn3c(N)c(-c4ccccc4)c(NC4CC(C)(C)N(C)C(C)(C)C4)nc23)cc1OC
Return: 5.82

Enquiry: Any idea what its pIC50 is? The compound is COc1ccc(-c2cnn3c(N)c(-c4ccccc4)c(NC4CCN(C)CC4)nc23)cc1OC
Return: 5.26

Enquiry: Any idea what its pIC50 is? The compound is COc1ccc(-c2cnn3c(N)c(-c4ccccc4)c(OCCCN(C)C)nc23)cc1OC
Return: 5.55
